Test system: ACHN renal
procedureSummary: NCI tumour cell line growth inhibition, 48 h
readoutName: TGI

The recorded TGI for O=c1[nH]c(=O)n(C2CC(O)C(CO)O2)cc1Oc1ccccc1 (stereo not given) is > 100 µM

Noted for C[C@@H]1[C@@H](C)C(c2ccccc2)O[Si]1(C(C)(C)C)C(C)(C)C (stereo not given in full) : its TGI reads 31.5 µM

The molecule identified as COc1ccc(C(=O)Cn2c(C(=O)c3ccccc3)nc3ccccc32)cc1 registered its TGI at > 100 µM

Measured TGI of COC(=O)c1ccccc1C1CN=NC12Cc1c(ccc3c1CCC3)C2=O (stereo not given) : > 100 µM

Sure, the documented TGI for Cc1c(C(=O)c2ccc(N)c3ccccc23)c2ccccc2n1CCN1CCOCC1 is > 100 µM
